Just for reference, patent US9994594B2 is where these values come from.

As shown below, each of these compounds has a reported IC50 value.
# tested_system: UniProtKB P05089
# Sequence (P05089 whole entry): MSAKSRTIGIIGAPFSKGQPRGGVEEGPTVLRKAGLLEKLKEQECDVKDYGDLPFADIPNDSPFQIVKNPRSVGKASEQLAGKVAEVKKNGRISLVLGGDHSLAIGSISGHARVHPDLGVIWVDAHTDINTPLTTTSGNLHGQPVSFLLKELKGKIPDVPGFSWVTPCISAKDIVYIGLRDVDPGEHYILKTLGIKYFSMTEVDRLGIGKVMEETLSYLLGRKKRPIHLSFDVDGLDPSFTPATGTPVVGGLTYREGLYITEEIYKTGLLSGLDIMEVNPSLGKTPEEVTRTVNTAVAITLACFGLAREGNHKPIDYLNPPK
# measurement_description: Inhibition of arginase I, spectrophotometric urea assay at 530 nm
# Type: biochemical
# details: Formula I compounds, Table 2; read-out: Potency (ARG I)
Structures can show the parent of a compound that is named as a salt.

Look over these answered cases.
compound: CCC(O)C(N)(CCCCB(O)O)C(=O)O (centres unmarked) [compound 108, hydrochloride]
recorded_endpoint: IC50
result: 1000 to 2000 nM
--
compound: N[C@](CCCCB(O)O)(CCN1CCCCC1)C(=O)O
recorded_endpoint: IC50
result: 0.1 to 250 nM
--
compound: NC(CCCCB(O)O)(C(=O)O)C(O)CCC(F)(F)F (centres unmarked) [compound 111, hydrochloride]
recorded_endpoint: IC50
result: 2000 to 5000 nM

Reported IC50 for NC(CCCCB(O)O)(CCN1CCC(c2ccc(Cl)cc2)CC1)C(=O)O (centres unmarked) [compound 121, dihydrochloride] : what is it? 251 to 1000 nM
